In this section, each of the sequences is paired with its reported purified protein yield per well.
Assay: purified protein yield per well (BCA); higher = higher soluble expression

Here are 2 sequences together with their reported answers.
## Input Supply recorded purified protein yield per well for DEIGQAPTAANITGNGSFAVTSAAVTGASGFGGGTVYYPTTAGTYPVVAIAPGFTQAWSAIQWLGPRLSSWGFVVVGINTNSSLDFPASRGTQLLAALNWAVASAPAAVTSRADGTRRGVAGYSMGGGGTLEALSQDTTGAVKAGVPMAPWHTDTTWQQVTEPVFILGGQNDSTAPVASHAKPMYNSLGGPKTYVELAGAPHSFPRTDNATTSRALVSWFKRWLNGDARFTPFTCGFTGTAISAYQTTAC [ESM099] here.
## Output < 25 µg

## Input Supply recorded purified protein yield per well for QVANPYAKGPNPTEASVTATTGPFAVTTSNISSLVSGFGGGRLYYPTATNQGTYGAIALSPGFTAGWSSIDWLGPRLASFGFVVIGIETNSRYDYPPSRGEQLLAALDWAVEDSPAASRIDPTRLAVGGHSMGGGGSLEAASDRPSLKAVLPLAPWNSDKTWNEVQVPTLIIGGESDTVAPVGSHSTPFYNSLSGEKAFLELNNASHFFPQSPNNLVAKLAISWAKRWVDNDTRYSQFLCPGPASGGLSEVQAYRQTCPF [TEP096] here.
## Output < 25 µg

New cases:
## Input Supply recorded purified protein yield per well for QVGPDPTSASLNATAGPFSVSTASVISPRGFGGGTIYYPTTTGRYGVVAISPGFTATQSSIAWLGRRLATHGLVVITMNTNSTYDQPSSRATQLMAALNYVVNSSSSTVRARVDSSKLAVAGHSMGGGGALIAAENNPTLKASLPLTPWNSSTNFSDVRVPTLIVGADGDSVASVSRHARPFYASLPSNTFKAYAELNGASHFTPNSTSTPIGRYGVAWMKRFVDADTRYSPFLCGAAHQSYATSLVFDRYSQNCPY [ESM125] here.
## Output < 25 µg

###

In this section, each of the sequences is paired with its reported PET hydrolysis.
Experiment: PET hydrolysis, aromatic products released after 48 h (umol product/mg enzyme); higher = more PET depolymerization activity
Settings: substrate: cryPow; 40 °C; pH 5.5

Here are 2 sequences together with their reported answers.
## Input Supply recorded PET hydrolysis for ASPYERGPNPTTAILEASSGPYSVSSVSVSSLVTGFGGGRIYYPTTTADGTFGGIAISPGFTARWSSLEWLGPRIASHGFVVIGIETNSIYDQPTSRGQQLLAALDYLVNSSSARTRVDRNRLAVAGHSMGGGGTLYAANARPSLQAAVPIAPWNTDKTWGGVQVPTMIIGGESDSVAPVATHAIPFYTSIPASSEKAYLELNNASHFFPQTVNTTMAKSMVSWLKRYVDDDTRYDPWLCPAPSGLSISDYRDTCPA [DP084] here.
## Output < 3

## Input Supply recorded PET hydrolysis for TDNPHQRGPNPSQASISANRGTFATAETSVGSGNGFGAAKIYYPTDTGQGTFGAIAVSPGYTATWAAEGAWMGHWLASFGFVVIGIDTINRNDFDVARGTQLLAALDYLTQRSSVRTRVDPSRLAVMGHSMGGGGTISAALRRPTLKAAIGLAPYSPSQTTTGMQVPTVLLAGQNDGTSTPASIITLHNNIPASTEKAYLELTGAGHGFPTSNNSVVTRKVIPWMKIFIDQDTRYTQFLCPLQDWTGIRSYRNSCPLLPNDPGTTFSLAGSASGKCVDVPGRVQTNGTGLIIWTCNGAANQHWTRTAAGELRIYGNSKCMDASGQGARVTINSCNGGSGQKWTVGTNGTVTNAASAGCLDTGGTADNAPVIVTTCNGGSGQIWIKRS [ESM184] here.
## Output < 3

Now consider a different sequence.
## Input Supply recorded PET hydrolysis for AEAADNPYQRGPDPTLASVAATRGPFATAQATVPAGNGFNGGYVYYPTDTSLGTWGAVAIVPGYSALFADEEAWMGPWLASFGFVVLGIETNSRTDGADARATQLLAALDYLTQSSPVRHRVDANRLGVMGHSAGGAGTLMAALRRPSLKSAVGLAPGAPGNSLNMSTTQVPTMLISGQNDGTVTPSYVQGIYNTLPATVEHAWAELAGNDHLSFTRPNPTEMRILIPWLKIFLDNDTRYTQFLCPLADSTGVSRYSATCPLVPPGGPTAPPTVTPPPPTPTTPSPTTPPTSAACTATYRTVNSWSGGFQGEVTVTAGRAAINGWTVRWDLGNGQSISQVWNGTLSTSGSTATVRNVSYNGSLAPAASTGFGFLGTGAPAIPRLTCTSP [ESM037] here.
## Output < 3
